Quick list: apparent KD of MS2 coat protein per entry.
test system: MS2 coat protein; assay: apparent KD of MS2 coat protein; designed switch direction (-1 OFF switch, 1 ON switch): -1; higher = weaker reporter binding; conditions: input ligand: FMN 200 uM

- SEQ: "UAUUACGCAAGCAGGUCCCACAUGAGGAUCACCCAUGUGCUCGUCUUAUAACGAUCUGUGGGAAAACCUACGGAUCG [Elimod 19 - Jieux - Sensor, turn-off variant 1] (Eterna round: R97, puzzle: Sensor, turn-off variant 1)"
  apparent KD of MS2 coat protein: "45.8 nM"
- SEQ: "UGAAAAGACCUAGGAUAUACCCAGUGGGUAGAGGGUCAGAAUAAUAAAACAUGAGGAUCACCCAUGUAGAAGGAGGGAAAGAAG [Laerxe] (Eterna round: R96, puzzle: Exclusion NG 2)"
  apparent KD of MS2 coat protein: "48.3 nM"
- SEQ: "AAUAUCGUAGGAUAUUAAUACUCAGACAUGAGGAUCACCCAUGUUUGGUGGGUCGGAGAAUGAGAAGGGCGAUGAA [EX5 #15] (Eterna round: R97, puzzle: Exclusion 5)"
  apparent KD of MS2 coat protein: "86 nM"

* * *

system: MS2 coat protein; assay: apparent KD of MS2 coat protein; designed switch direction (-1 OFF switch, 1 ON switch): -1; higher = weaker reporter binding; details: input ligand: microRNA oligo, concentration not stated
MEASURE NAME: apparent KD of MS2 coat protein (nM)

- SEQ: "CUGCUCCGUGUAGGAUAUGCGCGCACCCACCGCGCAGAAGGACAUGAGGAUCACCCAUGUAUGUUAUUAUCACGUGAGGCGCAG [Design 35] (Eterna round: R96, puzzle: Exclusion NG 1)"
  MEASURE NAME: "apparent KD of MS2 coat protein"
  UNIT ABBREVIATION: "nM"
  NUMBER: 13.6
- SEQ: "UCUAUGAUGCGAGGAUAUCGACCAUUCCUCUUUACAUGAGGAUCACCCAUGUUCGUACGCUACAACGAGAAGGCGCACUAAGUU [JR_ExcNG2_Sub060] (Eterna round: R96, puzzle: Exclusion NG 2)"
  MEASURE NAME: "apparent KD of MS2 coat protein"
  UNIT ABBREVIATION: "nM"
  NUMBER: 131
- SEQ: "AUCAGCUCGUGAGGAUAUACAUCACUGCUUCGGCAGUGUAUUAAGAUCACAUGAGGAUCACCCAUGUAGAAGGCACGAGCUGAU [ENG2/2-A3] (Eterna round: R96, puzzle: Exclusion NG 2)"
  MEASURE NAME: "apparent KD of MS2 coat protein"
  UNIT ABBREVIATION: "nM"
  NUMBER: 31.7
- SEQ: "GUCGUGCGGCUUUGCUGUACGAGUACAUGAGGAUCACCCAUGUAGGAUAUGGUUCGCUUUGCGUGCCAGAAGGGCGUGCGUUGG [Excl-NG3-LRO12] (Eterna round: R96, puzzle: Exclusion NG 3)"
  MEASURE NAME: "apparent KD of MS2 coat protein"
  UNIT ABBREVIATION: "nM"
  NUMBER: 21.6
- SEQ: "AUGAGCAGACGGAGAUCCAACAUGAGGAUCACCCAUGUCUCAUAAGCUUUUUGUUCAUCUUAUUGUACCUUGGUGCA [Mat - Sensor v3 - turn-off var 1 - JL Mod - D25] (Eterna round: R96, puzzle: Sensor v3, turn-off variant 1)"
  MEASURE NAME: "apparent KD of MS2 coat protein"
  UNIT ABBREVIATION: "nM"
  NUMBER: 25.4
- SEQ: "UCUAGUUGGUAAGGAUAUCCUACAUUGUUCUGGCCCGGGCAUGCUACAUGAGGAUCACCCAUGUGGGAGAAGGUGCGUCAUUGC [Design 21] (Eterna round: R96, puzzle: Exclusion NG 2)"
  MEASURE NAME: "apparent KD of MS2 coat protein"
  UNIT ABBREVIATION: "nM"
  NUMBER: 32.2
- SEQ: "AGCAUCUGAGGAUAUACUGGGUAUGGAAGGCGAAGGGCCAGACAUGAGGAUCACCCAUGUAGAAGGCAGUUUGC [Esenonan] (Eterna round: R96, puzzle: Exclusion 2)"
  MEASURE NAME: "apparent KD of MS2 coat protein"
  UNIT ABBREVIATION: "nM"
  NUMBER: 42
- SEQ: "UUAAUAUAUGUAGGAUAUGCGUGGCGAAGCUAUGCAGAAGGACAUGAGGAUCACCCAUGUUCCAGCGUCCGCGUACGGAUGCAA [JL Eng1 1.21 mod 11] (Eterna round: R96, puzzle: Exclusion NG 1)"
  MEASURE NAME: "apparent KD of MS2 coat protein"
  UNIT ABBREVIATION: "nM"
  NUMBER: 12.3
- SEQ: "AGAGUGCUGCGAGGAUAUACAUGAGGAUCACCCAUGUUAUCGUGUGAGGCUUUGCCUCACACGAAGUAGAAGGCGCAGUACUCA [Mat - Exclusion NG 2 - Mod of JL - D100] (Eterna round: R96, puzzle: Exclusion NG 2)"
  MEASURE NAME: "apparent KD of MS2 coat protein"
  UNIT ABBREVIATION: "nM"
  NUMBER: 7.69
- SEQ: "CAUACAGUAGUCAGGAUAUUGGAAGAGACACGGAACGAGAAGGGACAUGAGGAUCACCCAUGUAUACUGUAAAG [EX-4 Malc #4] (Eterna round: R96, puzzle: Brourd's mod of Exclusion 4)"
  MEASURE NAME: "apparent KD of MS2 coat protein"
  UNIT ABBREVIATION: "nM"
  NUMBER: 25.5
- SEQ: "AUUAAUGUCAAAGGAUAUCAGCACGAUUAGUGCUGAGAAGGUUGAACAUGAGGAUCACCCAUGUAGAUCAUUAAUAAUUUAAUU [ENG1/10-B2] (Eterna round: R96, puzzle: Exclusion NG 1)"
  MEASURE NAME: "apparent KD of MS2 coat protein"
  UNIT ABBREVIATION: "nM"
  NUMBER: 17.9
- SEQ: "ACAUGAGGAUCACCCAUGUCAGGCGGGUCCACUCCGGCUGUUGAGGAUAUAGUUCGGUAUCCGCGCUAGAAGGUGAGGGCCGGC [Aenatbe mod 22] (Eterna round: R96, puzzle: Exclusion NG 3)"
  MEASURE NAME: "apparent KD of MS2 coat protein"
  UNIT ABBREVIATION: "nM"
  NUMBER: 15.3
- SEQ: "GUAGAGUAAGGAUAUACUGAAUAGGAUAGAAUGGUUAGAAAGUAGAAGGUACAUGAGGAUCACCCAUGUAAUGU [Excluse me!!!! 19 - Jieux - Exclusion 4] (Eterna round: R96, puzzle: Exclusion 4)"
  MEASURE NAME: "apparent KD of MS2 coat protein"
  UNIT ABBREVIATION: "nM"
  NUMBER: 18.6
- SEQ: "UUUAAUCAUGUAGGAUAUGCGUGGCGAAGCUAUGCAGAAGGACAUGAGGAUCACCCAUGUUCUAGCGUCUGCGUACAGAUGCGG [13th something] (Eterna round: R96, puzzle: Exclusion NG 1)"
  MEASURE NAME: "apparent KD of MS2 coat protein"
  UNIT ABBREVIATION: "nM"
  NUMBER: 35.3
- SEQ: "AAAAUAAAAGCAGGAUAUCGACCUCCCAAGUGGCGAGAAGGGCUAGACGGGCGGUCUAACAUGAGGAUCACCCAUGUCAACAAA [Soorante] (Eterna round: R96, puzzle: Exclusion NG 1)"
  MEASURE NAME: "apparent KD of MS2 coat protein"
  UNIT ABBREVIATION: "nM"
  NUMBER: 23.5
- SEQ: "UAUUGCAAGUGAGGAUAUGACAUGAGGAUCACCCAUGUAAAGGGAGUUGACUAUAUAGCAAGAUAUCAGAAGGCACAACUGUAU [JR_ExcNG2_Sub004] (Eterna round: R96, puzzle: Exclusion NG 2)"
  MEASURE NAME: "apparent KD of MS2 coat protein"
  UNIT ABBREVIATION: "nM"
  NUMBER: 114
- SEQ: "AUAAAUCAUGUAGGAUAUGCGUGGCAAAGCUAUGCAGAAGGACAUGAGGAUCACCCAUGUGCUUCCGUCUGCGUACAGACGGUA [Mat - Exclusion NG 1 - Mod of JL - D33] (Eterna round: R96, puzzle: Exclusion NG 1)"
  MEASURE NAME: "apparent KD of MS2 coat protein"
  UNIT ABBREVIATION: "nM"
  NUMBER: 80.7
- SEQ: "UACAUGAGGAUCACCCAUGUUUUGUCGUGUAUGGUAUUUAUCUAGGAUAUCAUGUUAUUUAUUUAUGAGAAGGAGAAUAUUAAU [JMF's solution 24] (Eterna round: R96, puzzle: Exclusion NG 3)"
  MEASURE NAME: "apparent KD of MS2 coat protein"
  UNIT ABBREVIATION: "nM"
  NUMBER: 29.1
